# IC50 values compiled below
studySystem: integrin αvβ6 (Homo sapiens, UniProt P06756+P18564)
Construct: purchased R&D Systems
assayName: Competitive binding ELISA, purified integrin αvβ6
reportedConditions: competitive ELISA vs biotinylated TGFβ1-LAP, n = 3; read-out: IC50 (μM) αvβ6
Peptide text beside a SMILES is read from it. * marks the point of attachment. Benzoyl(4-F) = O=C(c1ccc(F)cc1)*

CC(C)C[C@H](NC(=O)[C@H](Cc1ccc(O)cc1)NC(=O)[C@@H](NC(=O)[C@H](CC(C)C)NC(=O)[C@H](CC(=O)O)NC(=O)CNC(=O)[C@@H](NC(=O)c1ccc(F)cc1)C(C)C)[C@@H](C)O)C(=O)N[C@@H](CCCCN)C(=O)N[C@@H](CCCCN)C(N)=O [1a] ({Benzoyl(4-F)}-VGDLTYLKK-NH2)	0.81 µM
CC(=O)N[C@H](C(=O)NCC(=O)N[C@@H](CC(=O)O)C(=O)N[C@@H](CC(C)C)C(=O)N[C@H](C(=O)N[C@@H](Cc1ccc(O)cc1)C(=O)N[C@@H](CC(C)C)C(=O)N[C@@H](CCCCN)C(=O)N[C@@H](CCCCNC(=O)c1ccc(F)cc1)C(N)=O)[C@@H](C)O)C(C)C	> 100 µM

Here is the next item to consider.
The molecule listed as CC[C@H](C)[C@H](NC(=O)CN)C(=O)N[C@@H](CC(=O)O)C(=O)N[C@@H](CC(C)C)C(=O)N[C@H](C(=O)N[C@@H](CO)C(=O)N[C@@H](CC(C)C)C(=O)N[C@H](C(=O)N[C@@H](CCCCNC(=O)c1ccc(F)cc1)C(N)=O)[C@@H](C)O)[C@@H](C)O [compound 4] (H-GIDLTSLTK(Benzoyl(4-F))-NH2; N-terminus assumed) has a reported IC50 of > 100 µM

====

studySystem: integrin αvβ6 (Homo sapiens, UniProt P06756+P18564)
Construct: purchased R&D Systems
assayName: Competitive binding ELISA, purified integrin αvβ6
reportedConditions: competitive ELISA vs biotinylated TGFβ1-LAP, n = 3; read-out: IC50 (μM) αvβ6
Square brackets hold non-standard residues; d marks the D form. Peptide text beside a SMILES is read from it. * marks the point of attachment. PEG12 = NCCOCCOCCOCCOCCOCCOCCOCCOCCOCCOCCOCCOCCC(=O)O; Benzoyl(4-F) = O=C(c1ccc(F)cc1)*
readoutType: IC50

CN[C@H](C(=O)NCC(=O)N[C@@H](CC(=O)O)C(=O)N[C@@H](CC(C)C)C(=O)N[C@H](C(=O)N[C@@H](Cc1ccc(O)cc1)C(=O)N[C@@H](CC(C)C)C(=O)N[C@@H](CCCCN)C(=O)N[C@@H](CCCCNC(=O)c1ccc(F)cc1)C(N)=O)[C@@H](C)O)C(C)C	> 5 µM

Now for a further compound.
Item: CC(C)C[C@H](NC(=O)[C@H](Cc1ccc(O)cc1)NC(=O)[C@@H](NC(=O)[C@H](CC(C)C)NC(=O)[C@H](CC(=O)O)NC(=O)CNC(=O)[C@@H](NC(=O)CCOCCOCCOCCOCCOCCOCCOCCOCCOCCOCCOCCOCCN)C(C)C)[C@@H](C)O)C(=O)N[C@@H](CCCCN)C(=O)N[C@@H](CCCCNC(=O)c1ccc(F)cc1)C(N)=O [1d] (H-[PEG12]VGDLTYLKK(Benzoyl(4-F))-NH2; N-terminus assumed) | IC50: > 100 µM
